- System: L.wadsworthii
- method summary: microbe, parasite or virus in culture
- Type: cell-based
- experimental parameters: pH 6; 48 hours; 37°C

compound	MIC
Clc1ccc(COC(Cn2ccnc2)c2ccc(Cl)cc2Cl)c(Cl)c1 (stereo not shown) [miconazole]	128 µg/mL
Clc1ccccc1C(c1ccc(-c2ccccc2)cc1)n1ccnc1 (stereo not shown) [lombazole]	32 µg/mL
Clc1ccccc1C(c1ccccc1)(c1ccccc1)n1ccnc1 [clotrimazole]	8 µg/mL
c1ccc(-c2ccc(C(c3ccccc3)n3ccnc3)cc2)cc1 (stereo not shown) [bifonazole]	32 µg/mL

* * *

- Test system: L.pneumophila gr.10
- method summary: microbe, parasite or virus in culture
- Type: cell-based
- experimental parameters: Legionella pneumophila, GR.10, 48 h, pH 6
Each record here notes measured MIC.
measurement label: MIC (µg/mL)

compound	measurement label	result number
Clc1ccc(COC(Cn2ccnc2)c2ccc(Cl)cc2Cl)c(Cl)c1 (stereo not shown)	MIC	128
Clc1ccccc1C(c1ccc(-c2ccccc2)cc1)n1ccnc1 (stereo not shown)	MIC	64
Clc1ccccc1C(c1ccccc1)(c1ccccc1)n1ccnc1	MIC	16
c1ccc(-c2ccc(C(c3ccccc3)n3ccnc3)cc2)cc1 (stereo not shown)	MIC	128
